The measurements presented in this section are drawn from patent US20200385730.

# system name: CotEC chitinase (rCotEC P381-F712) (Clostridium difficile)
# assay info: SPR
# condition description: tags: C-terminal His
quantity name: pKd
Answer as the number alone; pKd is minus log10 of concentration in mol/L.

Q: Reported pKd for Chitinase_D11 (ssDNA) DNA: CCAGTGTAGACTACTCAATGCCTGGTAAATCGATGACCGCTGCCTCGCCTGAGTAATCATCGTACTATCCACAGGTCAACC : what is it?
Ans: 6.59
